- assay.info: Clearance in Sprague-Dawley rat liver microsomes at 1 uM
- Assay type: ADME
- cond: read-out: CLH
property.label: microsomal CLint at 1 µM (µL/min/mg)
Quick reminder: number only, in µL/min/mg, skip the unit.

Q: Look up microsomal CLint at 1 µM: COc1ccc2c3c1O[C@H]1[C@@H](OC(C)=O)C=C[C@H]4[C@@H](C2)N(C)CC[C@@]341
Result: 37.8

Q: Same thing, different compound: COc1ccc2c3c1O[C@H]1[C@@H](O)C=C[C@H]4[C@@H](C2)N(C)CC[C@@]341
Result: 48

Q: Same thing, different compound: COc1ccc2c3c1O[C@H]1[C@@H](OC(=O)C(C)(C)C)C=C[C@H]4[C@@H](C2)N(C)CC[C@@]341
Result: 52.7

====

- study.target: Delta-type opioid receptor (Cricetulus griseus)
- assay.info: Displacement of [3H]DADLE from delta opioid receptor in CHO cells at 1 uM after 120 mins relative to control
- Type: cell-based
property.label: inhibition
The number alone won't do; follow it with the unit.

Q: Look up inhibition: COc1ccc2c3c1O[C@H]1[C@@H](OC(C)=O)C=C[C@H]4[C@@H](C2)N(C)CC[C@@]341
Result: 18%

Q: Same thing, different molecule: COc1ccc2c3c1O[C@H]1[C@@H](OC(C)=O)CC[C@H]4[C@@H](C2)N(C)CC[C@@]341
Result: -10%

Q: Same thing, different molecule: CN1CC[C@]23c4c5ccc(O)c4O[C@H]2[C@@H](O)C=C[C@H]3[C@H]1C5
Result: 72%

Q: Same thing, different molecule: COc1ccc2c3c1O[C@H]1[C@@H](O)CC[C@H]4[C@@H](C2)N(C)CC[C@@]341
Result: 7%

Q: Same thing, different molecule: CCCCCCCCCCCC(=O)O[C@H]1C=C[C@H]2[C@H]3Cc4ccc(OC)c5c4[C@@]2(CCN3C)[C@H]1O5
Result: -7%

Q: Same thing, different molecule: COc1ccc2c3c1O[C@H]1[C@@H](OC(=O)C(C)(C)C)C=C[C@H]4[C@@H](C2)N(C)CC[C@@]341
Result: 57%

====

- study.target: Kappa-type opioid receptor (Cricetulus griseus) (UniProt G3HZR5)
- Sequence (G3HZR5 as listed by the source): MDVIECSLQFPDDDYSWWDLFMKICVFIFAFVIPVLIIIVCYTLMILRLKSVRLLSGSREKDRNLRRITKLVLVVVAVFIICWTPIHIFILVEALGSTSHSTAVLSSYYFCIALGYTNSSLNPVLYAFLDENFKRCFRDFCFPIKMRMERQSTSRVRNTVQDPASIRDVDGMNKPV
- assay.info: Displacement of [3H]U-69593 from kappa opioid receptor in CHO cells at 10 uM after 120 mins relative to control
- Assay type: cell-based
Task for the reader: assign each of the following compounds its reported inhibition.
Quick reminder: number only, in %, skip the unit.

Q: Recall the recorded inhibition for COc1ccc2c3c1O[C@H]1[C@@H](O)CC[C@H]4[C@@H](C2)N(C)CC[C@@]341 with Kappa-type opioid receptor (Cricetulus griseus) (UniProt G3HZR5) and state it.
Result: 51

Q: Same thing, different compound: CCCCCCCCCCCC(=O)O[C@H]1C=C[C@H]2[C@H]3Cc4ccc(OC)c5c4[C@@]2(CCN3C)[C@H]1O5
Result: 40

Q: Same thing, different compound: COc1ccc2c3c1O[C@H]1[C@@H](OC(=O)C(C)(C)C)C=C[C@H]4[C@@H](C2)N(C)CC[C@@]341
Result: 42

Q: Same thing, different compound: COc1ccc2c3c1O[C@H]1[C@@H](OC(C)=O)CC[C@H]4[C@@H](C2)N(C)CC[C@@]341
Result: 13

Q: Same thing, different compound: COc1ccc2c3c1O[C@H]1[C@@H](OC(C)=O)C=C[C@H]4[C@@H](C2)N(C)CC[C@@]341
Result: 66

Q: Same thing, different compound: CN1CC[C@]23c4c5ccc(O)c4O[C@H]2[C@@H](O)C=C[C@H]3[C@H]1C5
Result: 100

====

Task for the reader: assign each of the following molecules its reported IC50.
- assay.info: Inhibition of UDP-glucuronosyltransferase in Sprague-Dawley rat liver microsomes assessed as morphine conversion to M3G after 30 mins by HPLC analysis
Quick reminder: number only, in µM, skip the unit.

Q: Look up IC50: COc1ccc2c3c1O[C@H]1[C@@H](O)C=C[C@H]4[C@@H](C2)N(C)CC[C@@]341
Result: 4.32

Q: Same thing, different molecule: COc1ccc2c3c1O[C@H]1[C@@H](OC(C)=O)C=C[C@H]4[C@@H](C2)N(C)CC[C@@]341
Result: 3.25

Q: Same thing, different molecule: COc1ccc2c3c1O[C@H]1[C@@H](OC(=O)C(C)(C)C)C=C[C@H]4[C@@H](C2)N(C)CC[C@@]341
Result: 2.27

====

Task for the reader: assign each of the following compounds its reported microsomal CLint at 2.5 µM.
- assay.info: Clearance in Sprague-Dawley rat liver microsomes at 2.5 uM
- Assay type: ADME
- cond: read-out: CLH
Quick reminder: number only, in µL/min/mg, skip the unit.

Q: Look up microsomal CLint at 2.5 µM: COc1ccc2c3c1O[C@H]1[C@@H](OC(C)=O)C=C[C@H]4[C@@H](C2)N(C)CC[C@@]341
Result: 24.7

Q: Same thing, different compound: COc1ccc2c3c1O[C@H]1[C@@H](O)C=C[C@H]4[C@@H](C2)N(C)CC[C@@]341 [CODEINE]
Result: 31.1

Q: Same thing, different compound: COc1ccc2c3c1O[C@H]1[C@@H](OC(=O)C(C)(C)C)C=C[C@H]4[C@@H](C2)N(C)CC[C@@]341
Result: 29.1

====

- study.target: Mu-type opioid receptor (Homo sapiens) (UniProt P35372)
- Sequence (P35372 whole entry): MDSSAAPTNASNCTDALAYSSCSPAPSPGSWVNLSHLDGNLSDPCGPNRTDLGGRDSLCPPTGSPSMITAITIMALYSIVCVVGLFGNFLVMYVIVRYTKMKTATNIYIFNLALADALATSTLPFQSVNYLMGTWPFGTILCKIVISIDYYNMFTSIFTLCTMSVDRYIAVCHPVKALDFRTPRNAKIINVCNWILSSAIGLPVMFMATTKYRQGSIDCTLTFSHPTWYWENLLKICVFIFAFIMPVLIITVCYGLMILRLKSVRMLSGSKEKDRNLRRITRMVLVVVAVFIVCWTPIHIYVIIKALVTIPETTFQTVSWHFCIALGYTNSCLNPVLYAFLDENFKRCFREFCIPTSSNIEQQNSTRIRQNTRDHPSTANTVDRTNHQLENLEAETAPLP
- cond: HEK293, at 1 µM
- Description: Displacement of [3H]diprenorphine from mu opioid receptor in HEK293 cells at 1 uM after 120 mins relative to control
property.label: inhibition (%)
Quick reminder: number only, in %, skip the unit.

Q: Look up inhibition: CCCCCCCCCCCC(=O)O[C@H]1C=C[C@H]2[C@H]3Cc4ccc(OC)c5c4[C@@]2(CCN3C)[C@H]1O5
Result: 0

Q: Same thing, different compound: COc1ccc2c3c1O[C@H]1[C@@H](OC(=O)C(C)(C)C)C=C[C@H]4[C@@H](C2)N(C)CC[C@@]341
Result: 20

Q: Same thing, different compound: COc1ccc2c3c1O[C@H]1[C@@H](OC(C)=O)CC[C@H]4[C@@H](C2)N(C)CC[C@@]341
Result: -2

Q: Same thing, different compound: COc1ccc2c3c1O[C@H]1[C@@H](O)CC[C@H]4[C@@H](C2)N(C)CC[C@@]341
Result: 17

Q: Same thing, different compound: COc1ccc2c3c1O[C@H]1[C@@H](OC(C)=O)C=C[C@H]4[C@@H](C2)N(C)CC[C@@]341
Result: 19

====

Task for the reader: assign each of the following compounds its reported microsomal CLint at 50 µM.
- assay.info: Clearance in Sprague-Dawley rat liver microsomes at 50 uM
- Type: ADME
- cond: read-out: CLH
The number alone won't do; follow it with the unit.

Q: Look up microsomal CLint at 50 µM: COc1ccc2c3c1O[C@H]1[C@@H](OC(=O)C(C)(C)C)C=C[C@H]4[C@@H](C2)N(C)CC[C@@]341
Result: 6.54 µL/min/mg

Q: Same thing, different compound: COc1ccc2c3c1O[C@H]1[C@@H](OC(C)=O)C=C[C@H]4[C@@H](C2)N(C)CC[C@@]341
Result: 5.97 µL/min/mg

Q: Same thing, different compound: COc1ccc2c3c1O[C@H]1[C@@H](O)C=C[C@H]4[C@@H](C2)N(C)CC[C@@]341
Result: 8.35 µL/min/mg

====

- study.target: Mu-type opioid receptor (Homo sapiens)
- cond: HEK293, at 10 µM
- Description: Displacement of [3H]diprenorphine from mu opioid receptor in HEK293 cells at 10 uM after 120 mins relative to control
So basically: inhibition at 40% or higher? That is 1.0. Lower than 40%? That is 0.0.

Q: Could you tell me if the measured inhibition of COc1ccc2c3c1O[C@H]1[C@@H](OC(=O)C(C)(C)C)C=C[C@H]4[C@@H](C2)N(C)CC[C@@]341 reaches 40% or more?
Result: 0.0

Q: Same thing, different molecule: COc1ccc2c3c1O[C@H]1[C@@H](OC(C)=O)CC[C@H]4[C@@H](C2)N(C)CC[C@@]341
Result: 0.0

Q: Same thing, different molecule: COc1ccc2c3c1O[C@H]1[C@@H](OC(C)=O)C=C[C@H]4[C@@H](C2)N(C)CC[C@@]341
Result: 1.0

Q: Same thing, different molecule: CCCCCCCCCCCC(=O)O[C@H]1C=C[C@H]2[C@H]3Cc4ccc(OC)c5c4[C@@]2(CCN3C)[C@H]1O5
Result: 0.0

====

- study.target: Kappa-type opioid receptor (Cricetulus griseus) (UniProt G3HZR5)
- assay.info: Displacement of [3H]U-69593 from kappa opioid receptor in CHO cells at 1 uM after 120 mins relative to control
- Type: cell-based
property.label: inhibition (%)
Quick reminder: number only, in %, skip the unit.

Q: Look up inhibition: COc1ccc2c3c1O[C@H]1[C@@H](OC(C)=O)CC[C@H]4[C@@H](C2)N(C)CC[C@@]341
Result: 3

Q: Same thing, different compound: CN1CC[C@]23c4c5ccc(O)c4O[C@H]2[C@@H](O)C=C[C@H]3[C@H]1C5
Result: 95

Q: Same thing, different compound: CCCCCCCCCCCC(=O)O[C@H]1C=C[C@H]2[C@H]3Cc4ccc(OC)c5c4[C@@]2(CCN3C)[C@H]1O5
Result: 8

Q: Same thing, different compound: COc1ccc2c3c1O[C@H]1[C@@H](OC(C)=O)C=C[C@H]4[C@@H](C2)N(C)CC[C@@]341
Result: 25

Q: Same thing, different compound: COc1ccc2c3c1O[C@H]1[C@@H](O)CC[C@H]4[C@@H](C2)N(C)CC[C@@]341
Result: 4

Q: Same thing, different compound: COc1ccc2c3c1O[C@H]1[C@@H](OC(=O)C(C)(C)C)C=C[C@H]4[C@@H](C2)N(C)CC[C@@]341
Result: 6

Where do these numbers come from? They come from ChEMBL document CHEMBL3091304.
